measurement-target: SARS-CoV-2 Spike on pseudotyped virus (PsV) (SARS-CoV-2, UniProt P0DTC2 14-1273)
assay-details: cell-based or functional assay

binder	IC50 SARS-CoV2 PsV, IgG
mAb 64 (antibody, V domains shown) VH: EVQLLESGGGLVQPGGSLRLSCAASGFPFSQHGMHWVRQAPGKGLEWVSAIDRSGSYIYYADSVKGRFTISRDNSKNTLYLQMNSLRAEDTAVYYCARDTYGGKVTYFDYWGQGTLVTVSS VL: DIQMTQSPSSLSASVGDRVTITCRASQGISSHLAWYQQKPGKAPKLLIYDASNLETGVPSRFSGSGSGTDFTLTISSLQPEDFATYYCQQTYSTPWTFGQGTKVEIKR	> 50 µg/mL
mAb 180 (antibody, V domains shown) VH: QVQLVQSGAEVKKPGSSVKVSCKASGYTFTSYAMHWVRQAPGQGLEWMGRISPRSGGTKYAQRFQGRVTITADESTSTAYMELSSLRSEDTAVYYCAREAVAGTHPQAGDFDLWGRGTLVTVSS VL: DIVMTQSPLSLPVTPGEPASISCRSSQSLLHSNGYNYLDWYLQKPGQSPQLLIYAASSLQSGVPDRFSGSGSGTDFTLKISRVEAEDVGVYYCQQYYSSPYTFGQGTKLEIKR	> 50 µg/mL
mAb 349 (antibody, V domains shown) VH: EVQLLESGGGLVQPGGSLRLSCAASGFTFSNYGMHWVRQAPGKGLEWVSGISSAGSITNYADSVKGRFTISRDNSKNTLYLQMNSLRAEDTAVYYCAGNHAGTTVTSEYFQHWGQGTLVTVSS VL: DIQMTQSPSSLSASVGDRVTITCRASQSISSWLAWYQQKPGKAPKLLIYDTSNLETGVPSRFSGSGSGTDFTLTISSLQPEDFATYYCQQSYTTPWTFGQGTRLEIKR	> 50 µg/mL
mAb 160 (antibody, V domains shown) VH: QVQLVQSGAEVKKPGASVKVSCKASGYTFTGHDMHWVRQAPGQGLEWMGIINPSGGSTSYAQKFQGRVTMTRDTSTSTVYMELSSLRSEDTAVYYCARANSLRYYYGMDVWGQGTMVTVSS VL: DIQMTQSPSSLSASVGDRVTITCRASQSVSSWLAWYQQKPGKAPKLLIYAASSLQSGVPSRFSGSGSGTDFTLTISSLQPEDFATYYCQQGYTTPYTFGQGTKLEIKR	> 50 µg/mL
mAb 46 (antibody, V domains shown) VH: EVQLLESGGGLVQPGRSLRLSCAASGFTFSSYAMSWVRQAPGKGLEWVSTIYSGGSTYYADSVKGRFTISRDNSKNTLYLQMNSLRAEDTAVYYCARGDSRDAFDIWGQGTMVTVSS VL: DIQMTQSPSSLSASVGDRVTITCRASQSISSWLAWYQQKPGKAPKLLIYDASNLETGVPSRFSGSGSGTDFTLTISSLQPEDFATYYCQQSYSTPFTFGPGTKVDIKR	2.1 µg/mL
